molecular target: purified human Hsp90; construct: purified human Hsp90 (Stressgen, SPP-770); test: Hsp90 binding assay: displacement of BODIPY-labeled geldanamycin measured by fluorescence polarization; settings: BODIPY-GM 10 nM, Hsp90 30 nM, overnight at room temperature; read-out: GM displacement from purified Hsp90 measured by FP IC 50
Measured endpoint: pIC50
# log scale: pIC50 equals minus log10 of the concentration in mol/L

- C[C@H](O)C(=O)N1CCC(CCn2c(Sc3cc4c(cc3Cl)OCO4)nc3c(N)ncnc32)CC1: 6.40
- Nc1ncnc2c1nc(Sc1cc3c(cc1Br)OCO3)n2CCC1CCN(S(N)(=O)=O)CC1: 6.40
- CO[C@H](C)C(=O)N1CCC(CCn2c(Sc3cc4c(cc3C#N)OCO4)nc3c(N)ncnc32)CC1: 6.30
- CC(C)(C)OC(=O)N1CCC(CCn2c(Sc3cc4occc4cc3Br)nc3c(N)ncnc32)CC1: 5.60
- Nc1ncnc2c1nc(Sc1cc3c(cc1Br)OCO3)n2C1CCNCC1: 6.02
- CN1CCOc2cc(Sc3nc4c(N)ncnc4n3CCC3CCN(C=O)CC3)ccc21: 5.30
- Nc1ncnc2c1nc(Sc1cc3c(cc1Br)OCO3)n2CCC1CCN(CCCO)CC1: 6.22
- Nc1ncnc2c1nc(Sc1cc3c(cc1Br)OCCO3)n2CCC1CCN(C(=O)C2CC2(F)F)CC1 (stereo not shown): 7.05

GET /value?item= NC(=O)C[C@H](N)C(=O)N1CCC(CCn2c(Sc3cc4c(cc3Br)OCCO4)nc3c(N)ncnc32)CC1 &field=pIC50 returns 7.24

GET /value?item= N#Cc1cc2c(cc1Sc1nc3c(N)ncnc3n1CCC1CCN(C(=O)[C@@H](N)C(F)(F)F)CC1)OCO2 &field=pIC50 returns 6.30

GET /value?item= C[C@@H](O)C(=O)N1CCC(CCn2c(Sc3cc4occc4cc3Br)nc3c(N)ncnc32)CC1 &field=pIC50 returns 6.70

GET /value?item= C[C@H](O)C(=O)N1CCC(CCn2c(Sc3cc4c(cc3C#N)OCCO4)nc3c(N)ncnc32)CC1 &field=pIC50 returns 6.31

GET /value?item= COCC(=O)N1CCC(CCn2c(Sc3cc4c(cc3Br)OCCO4)nc3c(N)ncnc32)CC1 &field=pIC50 returns 7.15

GET /value?item= Nc1ncnc2c1nc(Sc1cc3c(cc1Br)C(=O)CC3)n2CCC1CCN(C=O)CC1 &field=pIC50 returns 7.22

GET /value?item= C[C@@H](OC(=O)C(C)(C)C)C(=O)N1CCC(CCn2c(Sc3cc4occc4cc3Br)nc3c(N)ncnc32)CC1 &field=pIC50 returns 6.73

GET /value?item= Nc1ncnc2c1nc(Sc1cc3c(cc1Br)OCO3)n2CCCn1c(=O)n2n(c1=O)CC=CC2 &field=pIC50 returns 6.05
